Value source: the supplement of paper PMC6555819

Test system: PPARg DBDmut:RXRa IVT, anti-PPARg (DBD mutation: PPARg1 K132A/R137A, NR concentration 270 nM, RXRa partner concentration 90 nM)
Protocol Description: PBM binding z-score (relative to random genomic background probes); higher = stronger binding; sequences stand for … in GC…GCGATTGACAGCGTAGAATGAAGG
Each record's class is read off its PBM binding z-score using these ranges: bucket 1 = under -0.4, bucket 2 = from -0.4 up to 0.5, bucket 3 = 0.5 and over

For orientation, consider the following solved cases.
sequence_entry=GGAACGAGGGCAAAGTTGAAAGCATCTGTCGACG assigned_category="bucket 1"
sequence_entry=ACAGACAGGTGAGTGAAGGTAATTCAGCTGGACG assigned_category="bucket 2"
sequence_entry=CCTAGGAGGACAACAGGAGGTCAGAGCTGCCAGA assigned_category="bucket 1"

Which category fits this record: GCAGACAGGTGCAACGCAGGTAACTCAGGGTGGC
bucket 1

Place this sequence in its band: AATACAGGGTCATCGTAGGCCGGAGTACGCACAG
bucket 3

For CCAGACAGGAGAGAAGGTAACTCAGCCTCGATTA , which PBM binding z-score bin applies?
bucket 1

Categorize the following entry: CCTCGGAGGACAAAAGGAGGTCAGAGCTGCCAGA
bucket 1

Exercise: read the entry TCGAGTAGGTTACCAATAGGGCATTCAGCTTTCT and state which class it falls under.
bucket 2

###

Tested on: PPARg:RXRa 270nM:90nM, anti-RXR (NR concentration 270 nM, RXRa partner concentration 90 nM)
Protocol Description: PBM binding z-score (relative to random genomic background probes); higher = stronger binding; sequences stand for … in GC…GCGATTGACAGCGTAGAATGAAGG
Label no if PBM binding z-score falls below 3; label yes in every other case.

sequence_entry=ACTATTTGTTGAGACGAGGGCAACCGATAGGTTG assigned_category=no
sequence_entry=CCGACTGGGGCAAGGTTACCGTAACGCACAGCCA assigned_category=yes
sequence_entry=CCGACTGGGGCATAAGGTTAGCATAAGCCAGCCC assigned_category=no
sequence_entry=CCTCGGAGGAGAACAGGAGGTCAGAGCTGCCAGA assigned_category=no
sequence_entry=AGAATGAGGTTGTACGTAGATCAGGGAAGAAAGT assigned_category=no
sequence_entry=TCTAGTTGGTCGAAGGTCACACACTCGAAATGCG assigned_category=yes
sequence_entry=CCTAGCTGGCCAATCTGGGTCACTCAAGGCTTGA assigned_category=no
sequence_entry=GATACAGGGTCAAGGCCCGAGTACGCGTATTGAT assigned_category=yes

Dear colleague, could you confirm whether CCTGCTAGGTCAATGGTCGGCTAAAGCAGCTCGC has PBM binding z-score at or above 3?
yes

Decide: PBM binding z-score of CAAACTAGGTCAAGGTAAAAGTCGGTTTGTGCCA >= 3?
yes

Has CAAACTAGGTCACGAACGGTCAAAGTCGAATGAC a recorded PBM binding z-score greater than or equal to 3?
yes

Does the sequence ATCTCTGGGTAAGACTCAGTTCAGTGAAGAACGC have recorded PBM binding z-score that is 3 or more?
no

Please check the record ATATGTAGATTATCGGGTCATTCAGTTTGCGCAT and state if its PBM binding z-score is at or above 3.
no

Textbook exercise: given the entry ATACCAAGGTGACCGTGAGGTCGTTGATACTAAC , state whether its PBM binding z-score is greater than or equal to 3.
no
